Tested on: IMP-1-expressing E. coli growth, with imipenem, MIC
Test: growth inhibition of IMP-1-expressing E. coli, late-stage follow-up, counter-screen for IMP-1/VIM-2 inhibitor project, imipenem co-treatment, MIC (AID 463099)
Assign MIC to each entry below.

Data request: # query: MIC of entry O=C(O)c1ccc[c]([Hg+])c1
Data returned: 3.75 µM

Data request: # query: MIC of entry COc1cccc[c]1[Hg+]
Data returned: 1.09 µM

Data request: # query: MIC of entry CC(=O)Nc1cc[c]([Hg+])cc1
Data returned: 2.5 µM

Data request: # query: MIC of entry [Hg+][c]1ccccc1
Data returned: 0.63 µM

Data request: # query: MIC of entry Cc1cc[c]([Hg+])cc1
Data returned: 0.94 µM

Data request: # query: MIC of entry O=C(O)c1cc[c]([Hg][Cl])cc1
Data returned: 9.38 µM
